molecular target: Cytochrome P450 2C9 (Homo sapiens) (UniProt P11712); assay: blockers of cytochrome P450 2C9 activity – biochemical, luminescence, ADME assay, primary screen (AID 777); details: CYP2C9 Supersomes, luciferin-H conversion, at 5 µM, active compounds read high
Sequence (P11712 whole entry, looked up): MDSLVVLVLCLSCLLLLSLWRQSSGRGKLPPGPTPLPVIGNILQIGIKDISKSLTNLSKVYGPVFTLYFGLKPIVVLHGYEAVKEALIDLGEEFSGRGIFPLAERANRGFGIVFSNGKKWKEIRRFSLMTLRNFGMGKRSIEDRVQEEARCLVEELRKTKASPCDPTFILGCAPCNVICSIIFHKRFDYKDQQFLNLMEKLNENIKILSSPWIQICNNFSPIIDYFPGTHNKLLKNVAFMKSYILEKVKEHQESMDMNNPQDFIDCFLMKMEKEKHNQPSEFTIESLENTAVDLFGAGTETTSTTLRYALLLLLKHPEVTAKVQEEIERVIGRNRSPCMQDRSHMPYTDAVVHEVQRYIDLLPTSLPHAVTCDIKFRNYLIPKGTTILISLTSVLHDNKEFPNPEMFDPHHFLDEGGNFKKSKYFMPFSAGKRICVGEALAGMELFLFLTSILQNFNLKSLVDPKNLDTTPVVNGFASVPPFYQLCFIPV
Hit rate of the full screen: of about 96,000 compounds, about 19,000 (20%) were called active. The list is a sample of the results.
Threshold check on inhibition: at or above 20% gives Criterion met, strictly below gives Criterion not met.

Task: Reported inhibition at or above 20%? CCc1c(C)[nH]c(=S)c(C#N)c1C
Result: Criterion not met

Task: Identify whether the reported inhibition of the following molecule is 20% or greater: CCOC(=O)CCc1c(C)c2ccc(OCc3nn[nH]n3)c(C)c2oc1=O
Result: Criterion met

Task: Could you please find out whether Cc1noc(NS(=O)(=O)c2ccc(N/C=C/C(=O)c3ccccc3)cc2)c1C has inhibition that meets 20% or exceeds it?
Result: Criterion met

Task: Record CCC(=O)c1c[nH]c(C(=O)NCC2CCCO2)c1 (stereo unspecified) ; criterion: inhibition no lower than 20%. Met?
Result: Criterion not met

Task: Reported inhibition reaches at least 20% for CCOc1ccc(C(=O)NC(C(=O)NCc2ccccn2)C(C)C)cc1 (stereo unspecified) ?
Result: Criterion not met

Task: Reported inhibition at or above 20%? Cc1sc2c(c1C)c(=O)n(-c1ccccc1)c1nncn21
Result: Criterion not met

Task: I'd appreciate it if you could say whether O=C(c1cccc(C(=O)N2CCN(c3ccc(F)cc3)CC2)c1)N1CCN(c2ccc(F)cc2)CC1 has inhibition at least equal to 20%.
Result: Criterion met

Task: Reported inhibition reaches at least 20% for COc1ccc(C(=O)Nc2ccc(S(=O)(=O)Nc3onc(C)c3C)cc2)cc1OC ?
Result: Criterion not met

Task: Hello, I need to know if CC(=O)c1ccc(Cc2ncc(C(F)(F)F)cc2Cl)s1 has measured inhibition not below 20%. Thanks!
Result: Criterion not met

Task: Is it the case that Cc1ccc(C(=O)N(CN2CCCC2=O)c2ccc(F)cc2)cc1 has inhibition reaching or exceeding 20%?
Result: Criterion not met

Task: Answer whether inhibition of O=C(O)C1CC=CCC1C(=O)Nc1ccccc1C(=O)N1CCN(c2ccccc2)CC1 (stereo unspecified) is greater than or equal to 20%.
Result: Criterion not met

Task: Could you tell me if the measured inhibition of COc1ccc(NC(=O)CCNC(=O)Cn2ccc3ccccc3c2=O)c(OC)c1 reaches 20% or more?
Result: Criterion not met

Task: Determine whether this molecule has inhibition no lower than 20%: CCOC(=O)N1CCN(Cc2oc(CO)cc(=O)c2O)CC1
Result: Criterion not met

Task: inhibition >= 20% for C=CCNC(=O)CCCC(=O)NCC=C ?
Result: Criterion not met

Task: Would you say Cc1noc(NS(=O)(=O)c2ccc(NC(=O)C34CCC(CC3)C4)cc2)c1C shows inhibition at minimum 20%?
Result: Criterion not met

Task: Reported inhibition at or above 20%? Cc1nnc(NC(=O)CCCOc2ccccc2)s1
Result: Criterion not met

Task: Textbook exercise: given the entry CCOC(=O)c1cnc(SC)nc1Sc1ccc(Cl)cc1Cl , state whether its inhibition is greater than or equal to 20%.
Result: Criterion met

Task: Threshold query (inhibition >= 20%) on COCc1cc(C(C)=O)ccc1OC
Result: Criterion not met

Task: In plain terms: is recorded inhibition at least 20% for CO/N=C/c1ccc(N2CCN(C(=O)c3cccc(Cl)c3)CC2)c([N+](=O)[O-])c1 ?
Result: Criterion not met

Task: Record O=C(c1ccccc1)c1cccn1CC(=O)N1CCN(c2ccc(F)cc2)CC1 ; criterion: inhibition no lower than 20%. Met?
Result: Criterion not met

Task: Hello, I need to know if O=c1cc(CN2CCN(c3cccc(Cl)c3)CC2)c2cc3c(cc2o1)CCCC3 has measured inhibition not below 20%. Thanks!
Result: Criterion met

Task: Evaluate CCCS(=O)(=O)Nc1c(C(=O)O)[nH]c2ccccc12 : inhibition at minimum 20%?
Result: Criterion met

Task: In plain terms: is recorded inhibition at least 20% for O=C(Nc1ccc(Cl)c(Cl)c1)N1CC=C(c2ccccc2)CC1 ?
Result: Criterion met

Task: Is it the case that COc1ccc(CCN(C)CCN2C(=O)c3ccccc3C2=O)cc1OC has inhibition reaching or exceeding 20%?
Result: Criterion not met

Task: Hi, just wondering whether Cc1cccc(C)c1NC1=NC(=S)N(c2ccc(N(C)C)cc2)C1(C)C shows inhibition of 20% or higher.
Result: Criterion not met

Task: Is the recorded value of inhibition equal to or greater than 20% for this molecule? Cc1nnc(NC(=O)Cn2c(=O)sc3ccccc32)s1
Result: Criterion met

Task: Determine whether measured inhibition meets or exceeds 20% for COC(=O)c1[nH]c2ccccc2c1NS(=O)(=O)c1ccc(OC)cc1OC
Result: Criterion met

Task: Hi, just wondering whether CCOC(=O)c1cnc(SCc2nc(N)nc(Nc3ccc(OC)cc3)n2)nc1N shows inhibition of 20% or higher.
Result: Criterion met

Task: Could you tell me if the measured inhibition of Cc1ccc(C(C)C)c(OCc2nnc(SCC(=O)Nc3nccs3)n2C)c1 reaches 20% or more?
Result: Criterion not met

Task: # bool: inhibition of CN(C)C(=O)c1cc(Br)ccc1Cl >= 20%
Result: Criterion not met

Task: Could you please find out whether CCOC(=O)N1CCN(Cc2nc(N)nc(Nc3ccc(C)cc3)n2)CC1 has inhibition that meets 20% or exceeds it?
Result: Criterion not met

Task: Say whether COc1ccc(CCn2c(NCCCN3CCOCC3)nc3c2c(=O)[nH]c(=O)n3C)cc1 shows inhibition of 20% or more.
Result: Criterion not met

Task: Say whether COc1ccc(CCN=C2SCC(=O)N2C)cc1OC shows inhibition of 20% or more.
Result: Criterion not met

Task: Does inhibition meet or surpass 20% for COc1ccc(CC(=O)c2ccc(O)cc2O)cc1OC ?
Result: Criterion met

Task: Is the recorded value of inhibition equal to or greater than 20% for this molecule? CCCCOC(=O)NCN1C(=O)C2C3C=CC(C3)C2C1=O (stereo unspecified)
Result: Criterion not met

Task: In plain terms: is recorded inhibition at least 20% for CCN(CC)CCN1C(=O)C(=O)/C(=C(/O)c2ccc(OC)c(OC)c2)C1c1ccccn1 (stereo unspecified) ?
Result: Criterion not met

Task: Please indicate if the recorded inhibition for CCC(CC)C(=O)Nc1cccc(C(=O)N2CCCC2)c1 meets or exceeds 20%.
Result: Criterion not met

Task: Could you please find out whether CCCc1cc(-c2n[nH]c(=S)n2Cc2ccccc2)cs1 has inhibition that meets 20% or exceeds it?
Result: Criterion met

Task: Please check the record N#C/C=C\Oc1ccc(Cl)cc1N and state if its inhibition is at or above 20%.
Result: Criterion not met

Task: Exam item: decide whether the reported inhibition for CC(C)(C)c1cc(CN2CCN(CCC#N)CC2)cc(C(C)(C)C)c1O is at least 20%.
Result: Criterion not met

Task: Threshold query (inhibition >= 20%) on O=C(Nc1nnc(C2CC2)s1)c1ccccn1
Result: Criterion not met

Task: Please indicate if the recorded inhibition for O=C(Nc1c2c(nn1-c1ccc(F)cc1)CS(=O)C2)C12CC3CC(CC(C3)C1)C2 (stereo unspecified) meets or exceeds 20%.
Result: Criterion not met

Task: Textbook exercise: given the entry CC(=O)Oc1ccc2c(C)c(CC(C)O)c(=O)oc2c1 (stereo unspecified) , state whether its inhibition is greater than or equal to 20%.
Result: Criterion not met

Task: Dear colleague, could you confirm whether O=C(Nc1nsc(-c2ccccc2)n1)c1ccncc1 has inhibition at or above 20%?
Result: Criterion met

Task: Assess whether reported inhibition for CN1C2CCC1/C(=C\c1ccccc1Cl)C(=O)/C2=C\c1ccccc1Cl sits at 20% or higher.
Result: Criterion not met
